Assign relative integration efficiency (log2) to each entry below.
Test system: VchCAST RNA-guided transposition machinery (E. coli BL21(DE3) host, lacZ target)
protocol.notes: relative integration efficiency (T-LR orientation) vs wild-type transposon end (log2 (normalized fold change)); transposon end mutated: left end; higher = more efficient transposition
Give bare numbers.

AATGTTGTTGATGCAACCATAAAGTGATATTTAATAATTATTTATAATCAGCAACTTAACCACAAAACAACCATATATTGATATCTCACAAAAACCAACGCCTGGTCGCGGGGGTGTCCGATCTGATTTCAGCAAAACTACTGCAGTAAGAA    -0.363

Lab note: next sequence to report on.
[in] Please provide the recorded relative integration efficiency (log2) for AATGTTGTTGATGCAACCATAAAGTGATATATAATTATTTATAATCAGCAACTTAACCACAAAACAACCATATATTGATATCTCACAAAACAACCATAAGTTGATATTTTTGTGAATCGAGTATTTCAGCAAAACTACTGCAGTAAGAAAGT , tested on VchCAST RNA-guided transposition machinery (E. coli BL21(DE3) host, lacZ target).
[out] -4.68

---

Tested on: VchCAST RNA-guided transposition machinery (E. coli BL21(DE3) host, lacZ target)
protocol.notes: relative integration efficiency (T-LR orientation) vs wild-type transposon end (log2 (normalized fold change)); transposon end mutated: right end (5 bp flank + 75 bp right end); higher = more efficient transposition
Assign relative integration efficiency (log2) to each entry below.

ACATTTGTTGATACAACCATAAAATGATAATTACACCCATAAATTGAGCATTATCACACCCATAAATTGATATTGCCTCTGATCATAGTCAGACCAACATTGCTACGACCCGTATTCGCACCGACAC    -0.422
ACATTTGTTGATACAACCATAAGTTGATATTTTCAACCATAAGTTGATATTTTTCACAACCATAAGTTGATATTTTCTCTGATCATAGTCAGACCAACATTGCTACGACCCGTATTCGCACCGACAC    -0.207
ACATTTGTTGATACAACCATAAAATGATAATTACACCCCGCCATTGATAATTATCACACCCATAAATTGATATTGCCTCTGATCATAGTCAGACCAACATTGCTACGACCCGTATTCGCACCGACAC    -2.56
ACATTTGTTGATACAACCATAAAATGATAATTACACCCATAAATTGATAATTATCAACAAACGCCCGGTCGCGGTAAGAGGATCATAGTCAGACCAACATTGCTACGACCCGTATTCGCACCGACAC    2.49
ACATTTGTTGATACAACCATAAAATCATCATTCACCCCTAAATTGATAATTATCACACCCACATTTAACTATAACGCTCTGATCATAGTCAGACCAACATTGCTACGACCCGTATTCGCACCGACAC    -1.37
ACATTTGTTGATACAACCATAAAATGATAATTACACCCATAAATTGATAATTATCCAACCCATAAATTGATATTGCCTCTGATCATAGTCAGACCAACATTGCTACGACCCGTATTCGCACCGACAC    0.964
ACATTTGTTGATACAACCATAAAATGATAATTACACCCATAAATTGATAATTATCAAACACCCATAAATTGATATTGCCTCTGATCATAGTCAGACCAACATTGCTACGACCCGTATTCGCACCGAC    1.9
ACATTTGTTGATACAACCATAAAATGATAATTAATAATTATTTATAATCAGCAACTTAACCACCACCCATAAATTGATAATTATCAACAAACGCCCGGTCGCGGTACTCTGATCATAGTCAGACCAA    0.423

Provide reported relative integration efficiency (log2) for each item, in the same order as listed.
1. ACATTTGTTGATACAACCATAAAATCATAATTACCCCCATAAATTGATAATTATCCCACCCCATTTAACTATAACGCTCTGATCATAGTCAGACCAACATTGCTACGACCCGTATTCGCACCGACAC
2. ACATTTGTTGATACAACCATAAAATGATAATTACACCCATAAATTGATAATTATCACACCCATAAATTGATATTGCCTCTAGCTTGATCTACATTGGATTGCCATTCTCTCACAGTAGCACCGACAC

[out]
0.676
0.213

Provide reported relative integration efficiency (log2) for each item, in the same order as listed.
1. ACATTTGTTGATACAACCATAAAATGATCATTCACCCATAAATTGATAATTATCACACCCACATTTAACTATAACGCTCTGATCATAGTCAGACCAACATTGCTACGACCCGTATTCGCACCGACAC
2. ACATTTGTTGATACAACCATAAAATGATAAAAACACCCATAAATTGATAATTATCACACCCATAAATTGATATTGCCTCTGATCATAGTCAGACCAACATTGCTACGACCCGTATTCGCACCGACAC
3. ACATTTGTTGATACAACCATAAAATGATAATGACACCCATAAATTGATAATGATCACACCCATAAATTGATATTTCCTCTGATCATAGTCAGACCAACATTGCTACGACCCGTATTCGCACCGACAC
4. ACATTTGTTGATACACCCATAAATTGATATTGCCAACCATAAGTTGATATTTTTCACACCCATAAATTGATATTGCCTCTGATCATAGTCAGACCAACATTGCTACGACCCGTATTCGCACCGACAC
5. ACATTTGTTGATACAACCATATATTGATATCTCCACCCATAAATTGATATTGCTCACAACCATATATTGATATCTCCTCTGATCATAGTCAGACCAACATTGCTACGACCCGTATTCGCACCGACAC

[out]
1. 0.654
2. -0.253
3. 0.195
4. -0.37
5. 0.439

---

Test system: VchCAST RNA-guided transposition machinery (E. coli BL21(DE3) host, lacZ target)
protocol.notes: relative integration efficiency (T-RL orientation) vs wild-type transposon end (log2 (normalized fold change)); transposon end mutated: right end (5 bp flank + 75 bp right end); higher = more efficient transposition
Assign relative integration efficiency (log2) to each entry below.
One number for each entry.

Examples with their reported relative integration efficiency (log2) follow.
ACATTTGTTGATACAACCATAAAATGATAATTACACCCATAAATTGCGCCTTATCACACCCATAAATTGATATTGCCTCTGATCATAGTCAGACCAACATTGCTACGACCCGTATTCGCACCGACAC    -1.39
ACATTTGTTGATACAACCATAAAATGATAATTACAACCATATATTGATATCTCTCACACCCATAAATTGATAATTACTCTGATCATAGTCAGACCAACATTGCTACGACCCGTATTCGCACCGACAC    -0.651
ACATTTGTTGATACAACCATAAAATGATAATTAATACACCCATAAATTGATAATTATCAACAAACGCCCGGTCGCGGTACTCTGATCATAGTCAGACCAACATTGCTACGACCCGTATTCGCACCGA    -2.6
ACATTTGTTGATACACCCATAAATTGATATTGCCAACCATAAAATGATAATTATCACAACCATAAGTTGATATTTTCTCTGATCATAGTCAGACCAACATTGCTACGACCCGTATTCGCACCGACAC    -0.46
ACTATTGTTGATACAACCATAAAATGATAATTACACCCATAAATTGATAATTATCACACCCATAAATTGATATTGCCTCTGATCATAGTCAGACCAACATTGCTACGACCCGTATTCGCACCGACAC    0.151

Provide reported relative integration efficiency (log2) for each item, in the same order as listed.
1. ACATTTGTTGATACAACCATAAAATGATAATTACAACCATAAAATGATAATTATGATAATTATCATTTTATGGTTGCTCTGATCATAGTCAGACCAACATTGCTACGACCCGTATTCGCACCGACAC
2. ACATTTGTTGATACAACCATAAAATGATAATTACACCCATAAATTGATAATTATCAGTGGCATAAATTGATATTGCCTCTGATCATAGTCAGACCAACATTGCTACGACCCGTATTCGCACCGACAC
3. ACATTTGTTGATACAACCATAAAATGATAATTACACAAATAAATTGATAATTATCACACCCATAAATTGATATTGCCTCTGATCATAGTCAGACCAACATTGCTACGACCCGTATTCGCACCGACAC
4. ACATTTGTTGATACAACCATAAAATGATCATTACACCCATAAATTGATAATTATCCCACCCCATTTAACTATAACGCTCTGATCATAGTCAGACCAACATTGCTACGACCCGTATTCGCACCGACAC
5. ACATTTGTTGATACAACCATAAAATGATAATTACACCCATAAATTGATAATTATCACACCCATAAATTGATATTGCCTCTGATCATAGTCAGACCACAACCATAAAATGATAATTAAGCACCGACAC

[out]
[0.301, -0.377, -0.996, -1.84, -0.0173]
